The reported numbers originate from paper PMC10144566.

- System: H-1975, non-small cell lung adenocarcinoma
- ASSAY NOTES: MTT cytotoxicity assay, H-1975
- TEST CONDITIONS: Homo sapiens, NCI-H1975, 72 h, read-out: IC50 (95% CI) H-1975
Listed next: entries and their corresponding IC50.
READOUT NAME: IC50

INSERT INTO results (molecular_string, reading) VALUES
  ('COc1cc(C(=O)N/N=C/c2cc3ccccc3s2)cc(OC)c1OC', '210 nM'),
  ('CCN(CC)CCNC(=O)c1c(C)[nH]c(/C=C2\C(=O)Nc3ccc(F)cc32)c1C', '4480 nM'),
  ('COc1ccc(/C=C\c2cc(OC)c(OC)c(OC)c2)cc1O', '35 nM'),
  ('COc1cc(C(=O)NN=Cc2ccccc2)cc(OC)c1OC', '2830 nM'),
  ('CCOc1cc2ncc(C#N)c(Nc3ccc(F)c(Cl)c3)c2cc1NC(=O)/C=C/CN(C)C', '4400 nM');

----------
- Test system: PC-9, lung adenocarcinoma (overexpressed EGFR with L858R mutation)
- ASSAY NOTES: MTT cytotoxicity assay, PC-9
- TEST CONDITIONS: Homo sapiens, 72 h, read-out: IC50 (95% CI) PC-9
pIC50: −log10 of the molar value.
// reported pIC50 per item
READOUT NAME: pIC50

INSERT INTO assay_data (compound, system_tested, reading) VALUES
  ('COc1cc(C(=O)NN=Cc2ccccc2)cc(OC)c1OC [LASSBio-1586]', 'PC-9, lung adenocarcinoma (overexpressed EGFR with L858R mutation)', 6.12),
  ('COc1ccc(/C=C\c2cc(OC)c(OC)c(OC)c2)cc1O [CA4, Combretastatin A-4]', 'PC-9, lung adenocarcinoma (overexpressed EGFR with L858R mutation)', 6.96);

----------
- System: HCT-116 human colorectal cancer cells (colon carcinoma)
- ASSAY NOTES: MTT cytotoxicity assay, HCT-116
- TEST CONDITIONS: Homo sapiens, HCT-116, 72 h, read-out: IC50 (95% CI) HCT-116
READOUT NAME: IC50 (nM)

INSERT INTO results (molecular_string, readout_name, reading) VALUES
  ('COc1ccc(/C=C\c2cc(OC)c(OC)c(OC)c2)cc1O', 'IC50', 2.1),
  ('COc1cc(C(=O)N/N=C/c2cc3ccccc3s2)cc(OC)c1OC', 'IC50', 60),
  ('COc1cc(C(=O)NN=Cc2ccccc2)cc(OC)c1OC', 'IC50', 320);

----------
- Tested on: N-87, gastric carcinoma
- ASSAY NOTES: MTT cytotoxicity assay, N-87
- TEST CONDITIONS: Homo sapiens, 72 h, read-out: IC50 (95% CI) N-87
pIC50: −log10 of the molar value.
We use 6 as the dividing line for pIC50: on or above the line is Fulfilled, below is Not fulfilled.

INSERT INTO assay_data (molecule, assigned_label) VALUES
  ('COc1ccc(/C=C\c2cc(OC)c(OC)c(OC)c2)cc1O [CA4, Combretastatin A-4]', 'Not fulfilled'),
  ('CCOc1cc2ncc(C#N)c(Nc3ccc(F)c(Cl)c3)c2cc1NC(=O)/C=C/CN(C)C [PELITINIB, Pelitinib]', 'Fulfilled'),
  ('COc1cc(C(=O)N/N=C/c2cc3ccccc3s2)cc(OC)c1OC [LASSBio-1920]', 'Fulfilled'),
  ('CCN(CC)CCNC(=O)c1c(C)[nH]c(/C=C2\C(=O)Nc3ccc(F)cc32)c1C [SUNITINIB, Sunitinib]', 'Not fulfilled');
